// provenance: patent US11247965B2

Each entry below carries its reported CC50 at 7 days.
experimental_details: In vitro cytotoxicity, MTT cell viability assay in HepG2 cells
Assay type: cell-based
test_context: human, Cytotoxicity CC50

O=C(Nc1ccc(F)c(F)c1)c1ccc(F)c(C(F)(F)C(=O)N2CCCCC(O)C2)c1 (centres unmarked) = 5 to 30 µM
Cc1cc(NC(=O)c2cc(C(F)(F)C(=O)NC(C)(C)C)n(C)c2)ccc1F = > 30 µM
Cc1cc(NC(=O)c2c(C)c(C(O)(C(=O)NC(C)(C)C)C(F)(F)F)c(C)n2C)ccc1F (centres unmarked) = 5 to 30 µM
Cc1cc(NC(=O)c2ccc(F)c(C(F)(F)C(=O)N3CCC(NC(=O)CC4CCOCC4)CC3)c2)ccc1F = 5 to 30 µM
Cc1cc(NC(=O)c2ccnc(C(F)(F)C(=O)N3C4CC[C@@H]3C[C@@H](C(N)=O)C4)c2)ccc1F = > 30 µM
Cc1cc(NC(=O)c2ccc(F)c(C(F)(F)C(=O)N3CC[C@H](O)C[C@H]3C)c2)ccc1F = 5 to 30 µM

Consider the compound Cc1cc(NC(=O)c2cc(F)cc(C(F)(F)C(=O)N3CCC(O)CC3)c2)ccc1F and give its measured CC50 at 7 days.
5 to 30 µM

Consider the compound O=C(Nc1ccc(F)c(Br)c1)c1ccc(F)c(C(F)(F)C(=O)N2[C@@H]3CC[C@H]2C[C@H](O)C3)c1 and give its measured CC50 at 7 days.
5 to 30 µM
